Data origin: patent US10316017B2

TARGET_OF_ASSAY: human Cot catalytic domain (30-397 amino acids) (Homo sapiens)
Construct: Purified recombinant human Cot catalytic domain (30-397 amino acids) was purchased from Cama Biosciences; purchased Cama Biosciences (so in the source)
TEST_DETAILS: High Throughput Cot Biochemical Assay (KinEASE TR-FRET)
CONDITION_NOTES: Cot KinEASE TR-FRET (HTRF) biochemical assay, 400 μM ATP; read-out: IC50 HTRF
pIC50: −log10 of the molar value.
ENDPOINT_LABEL: pIC50

>  <COMPOUND>
[2H][C@](Nc1cc(C(C)O)c2ncc(C#N)c(NCC(C)(C)C)c2c1)(c1ccc(F)cc1)c1cn(C2CC2)nn1 (stereo partly drawn) [Compound 29]

>  <TARGET_OF_ASSAY>
human Cot catalytic domain (30-397 amino acids) (Homo sapiens)

>  <pIC50>
6.66

$$$$
>  <COMPOUND>
[2H][C@](Nc1cc(Cl)c2ncc(C#N)c(NCC3(C(F)(F)F)CC3)c2c1)(c1ccc(F)cc1)c1cn(C2CC2)nn1 [Example 176]

>  <TARGET_OF_ASSAY>
human Cot catalytic domain (30-397 amino acids) (Homo sapiens)

>  <pIC50>
7.08

$$$$
>  <COMPOUND>
[2H][C@](Nc1cc(Cl)c2ncc(C#N)c(N[C@H](CC)c3ccccc3)c2c1)(c1cccc(C#N)c1)c1c[nH]nn1 [Compound 15]

>  <TARGET_OF_ASSAY>
human Cot catalytic domain (30-397 amino acids) (Homo sapiens)

>  <pIC50>
8.40

$$$$

1. [2H][C@](Nc1cc(Cl)c2ncc(C#N)c(NCCC3CC3)c2c1)(c1ccc(F)cc1)c1cn(C2CC2)nn1 [Example 269]
2. [2H][C@](Nc1cc(C#N)c2ncc(C#N)c(N[C@H](CC#N)c3ccccc3)c2c1)(c1ccc(F)cc1)c1cn(C2CC2)nn1 [Example 202]
Could you tell me which of 1 and 2 has the lower pIC50 reading? # respond with the chosen item's label
1

----------
TARGET_OF_ASSAY: human Cot catalytic domain (30-397 amino acids) (Homo sapiens, UniProt P41279)
Construct: Purified recombinant human Cot catalytic domain (30-397 amino acids) was purchased from Cama Biosciences; purchased Cama Biosciences (so in the source)
Sequence (P41279 30-397): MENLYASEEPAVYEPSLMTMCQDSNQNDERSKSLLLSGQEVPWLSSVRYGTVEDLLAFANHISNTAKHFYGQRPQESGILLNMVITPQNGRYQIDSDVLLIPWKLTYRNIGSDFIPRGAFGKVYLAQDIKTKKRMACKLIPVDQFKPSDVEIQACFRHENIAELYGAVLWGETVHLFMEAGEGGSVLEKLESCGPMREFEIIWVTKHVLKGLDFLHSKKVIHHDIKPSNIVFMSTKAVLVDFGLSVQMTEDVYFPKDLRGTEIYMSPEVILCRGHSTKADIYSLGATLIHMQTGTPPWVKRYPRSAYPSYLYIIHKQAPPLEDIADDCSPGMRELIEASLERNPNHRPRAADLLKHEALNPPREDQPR
TEST_DETAILS: High Throughput Cot Biochemical Assay (KinEASE TR-FRET)
CONDITION_NOTES: Cot KinEASE TR-FRET (HTRF) biochemical assay, 400 μM ATP; read-out: IC50 HTRF
ENDPOINT_LABEL: IC50 (nM)

A. [2H][C@](Nc1cc(Cl)c2ncc(C#N)c(N[C@@H](C)C(C)(C)C)c2c1)(c1ccc(F)cc1)c1cn(C2CC2)nn1
B. [2H][C@](Nc1cc(-c2ccncc2)c2ncc(C#N)c(NCC(C)(C)C)c2c1)(c1ccc(F)cc1)c1cn(C2CC2)nn1
C. [2H][C@](Nc1cc(Cl)c2ncc(C#N)c(N[C@H](CC)c3ccccc3)c2c1)(c1cccc(C#N)c1)c1cn(C2CC2)nn1
Let's sort these by IC50, smallest first. Go ahead? Lab note: final answer is the ordered label list.
C, A, B

----------
TARGET_OF_ASSAY: human Cot catalytic domain (30-397 amino acids) (Homo sapiens, UniProt P41279)
Construct: Purified recombinant human Cot catalytic domain (30-397 amino acids) was purchased from Cama Biosciences; purchased Cama Biosciences (so in the source)
TEST_DETAILS: High Throughput Cot Biochemical Assay (KinEASE TR-FRET)
CONDITION_NOTES: Cot KinEASE TR-FRET (HTRF) biochemical assay, 400 μM ATP; read-out: IC50 HTRF
ENDPOINT_LABEL: IC50 (nM)

>  <COMPOUND>
N#Cc1cnc2c(Cl)cc(N[C@@H](c3ccc(F)cc3)c3cn(C4CC4)nn3)cc2c1N[C@H](CCF)c1ccccc1

>  <EXPERIMENTAL_RESULT>
5

$$$$
>  <COMPOUND>
[2H][C@@](Nc1cc(Cl)c2ncc(C#N)c(NCC(C)(C)C)c2c1)(c1cn(CC(=O)O)nn1)c1ccccc1Cl

>  <EXPERIMENTAL_RESULT>
48

$$$$
>  <COMPOUND>
[2H][C@](Nc1cc(-c2cnco2)c2ncc(C#N)c(NCC(C)(C)C)c2c1)(c1ccc(F)cc1)c1cn(C2CC2)nn1

>  <EXPERIMENTAL_RESULT>
213

$$$$
>  <COMPOUND>
[2H][C@](Nc1cc(Cl)c2ncc(C#N)c(NCC3(C)CCC3)c2c1)(c1cccc(C#N)c1)c1cn(C2CC2)nn1

>  <EXPERIMENTAL_RESULT>
3

$$$$

a. [2H][C@](Nc1cc(Cl)c2ncc(C#N)c(NC3CCOCC3(C)C)c2c1)(c1ccc(F)cc1)c1cn(C2CC2)nn1 (stereo partly drawn)
b. [2H][C@@](Nc1cc(Cl)c2ncc(C#N)c(N[C@H](CCC#N)c3ccccc3)c2c1)(c1cn(C2CC2)nn1)c1cccc(C#N)c1C
Could you tell me which of a and b has the lower IC50 reading? # respond with the chosen item's label
b
(b: 1 nM, a: 3 nM)

----------
TARGET_OF_ASSAY: human Cot catalytic domain (30-397 amino acids) (Homo sapiens, UniProt P41279)
Construct: Purified recombinant human Cot catalytic domain (30-397 amino acids) was purchased from Cama Biosciences; purchased Cama Biosciences (so in the source)
TEST_DETAILS: High Throughput Cot Biochemical Assay (KinEASE TR-FRET)
CONDITION_NOTES: Cot KinEASE TR-FRET (HTRF) biochemical assay, 400 μM ATP; read-out: IC50 HTRF
ENDPOINT_LABEL: IC50 (µM)

Consider the reported IC50 for these molecules:
>  <MOLECULE>
CC1(CNc2c(C#N)cnc3c(Cl)cc(N[C@@H](c4ccc(F)cc4)c4c[nH]nn4)cc23)CCOCC1

>  <TARGET_OF_ASSAY>
human Cot catalytic domain (30-397 amino acids) (Homo sapiens, UniProt P41279)

>  <IC50 (µM)>
0.028

$$$$
>  <MOLECULE>
[2H][C@](Nc1cc(Cl)c2ncc(C#N)c(NC3CC(F)(F)C3)c2c1)(c1ccc(F)cc1)c1cn(C2CC2)nn1

>  <TARGET_OF_ASSAY>
human Cot catalytic domain (30-397 amino acids) (Homo sapiens, UniProt P41279)

>  <IC50 (µM)>
0.097

$$$$
>  <MOLECULE>
[2H][C@](Nc1cc(Cl)c2ncc(C#N)c(NC[C@@H](C)c3ccccc3)c2c1)(c1ccc(F)cc1)c1cn(C2CC2)nn1

>  <TARGET_OF_ASSAY>
human Cot catalytic domain (30-397 amino acids) (Homo sapiens, UniProt P41279)

>  <IC50 (µM)>
0.016

$$$$
>  <MOLECULE>
CC(C)n1cc([C@@H](Nc2cc(Cl)c3ncc(C#N)c(N[C@@H](CC#N)c4ccccc4)c3c2)c2ccc(F)cc2)nn1

>  <TARGET_OF_ASSAY>
human Cot catalytic domain (30-397 amino acids) (Homo sapiens, UniProt P41279)

>  <IC50 (µM)>
0.864

$$$$
>  <MOLECULE>
[2H][C@](Nc1cc(Cl)c2ncc(C#N)c(N[C@H]3CCC[C@@H](O)C3)c2c1)(c1ccc(F)cc1)c1cn(C2CC2)nn1

>  <TARGET_OF_ASSAY>
human Cot catalytic domain (30-397 amino acids) (Homo sapiens, UniProt P41279)

>  <IC50 (µM)>
0.134

$$$$

A. CCN1CCC(n2cnc(C(Nc3cc(Cl)c4ncc(C#N)c(Nc5ccc(F)c(Cl)c5)c4c3)c3ccccc3)c2)CC1 (stereo not shown)
B. [2H][C@](Nc1cc(Cl)c2ncc(C#N)c(NCCc3ccn(C)n3)c2c1)(c1ccc(F)cc1)c1cn(C2CC2)nn1
Of the two listed items, which has the higher IC50? First: A Second: B # respond with the chosen item's label
B

----------
TARGET_OF_ASSAY: human Cot catalytic domain (30-397 amino acids) (Homo sapiens, UniProt P41279)
Construct: Purified recombinant human Cot catalytic domain (30-397 amino acids) was purchased from Cama Biosciences; purchased Cama Biosciences (so in the source)
TEST_DETAILS: High Throughput Cot Biochemical Assay (KinEASE TR-FRET)
CONDITION_NOTES: Cot KinEASE TR-FRET (HTRF) biochemical assay, 400 μM ATP; read-out: IC50 HTRF
pIC50: −log10 of the molar value.
ENDPOINT_LABEL: pIC50

Consider the reported pIC50 for these compounds:
>  <COMPOUND>
[2H][C@](Nc1cc(Cl)c2ncc(C#N)c(N[C@@H]3CCOCC3(C)C)c2c1)(c1ccc(F)cc1)c1cn(C2CC2)nn1

>  <TARGET_OF_ASSAY>
human Cot catalytic domain (30-397 amino acids) (Homo sapiens, UniProt P41279)

>  <pIC50>
7.02

$$$$
>  <COMPOUND>
[2H][C@](Nc1cc(Cl)c2ncc(C#N)c(Nc3cnc(F)c(F)c3)c2c1)(c1ccc(F)cc1)c1cn(C2(C(F)(F)F)CC2)nn1

>  <TARGET_OF_ASSAY>
human Cot catalytic domain (30-397 amino acids) (Homo sapiens, UniProt P41279)

>  <pIC50>
6.81

$$$$

P. [2H][C@](Nc1cc(Cl)c2ncc(C#N)c(NCC(C)(C)C)c2c1)(c1ccc(F)cc1)c1cn(-c2cccnc2)nn1
Q. CC(=O)Nc1cccc([C@H](Nc2cc(Br)c3ncc(C#N)c(NCC(C)(C)C)c3c2)c2cn(C3CC3)nn2)c1
Of the two listed items, which has the higher pIC50? First: P Second: Q # respond with the chosen item's label
Q
